# test_target: XLF(1-248) (Homo sapiens, UniProt Q9H9Q4 1-248)
# Sequence (Q9H9Q4 1-248): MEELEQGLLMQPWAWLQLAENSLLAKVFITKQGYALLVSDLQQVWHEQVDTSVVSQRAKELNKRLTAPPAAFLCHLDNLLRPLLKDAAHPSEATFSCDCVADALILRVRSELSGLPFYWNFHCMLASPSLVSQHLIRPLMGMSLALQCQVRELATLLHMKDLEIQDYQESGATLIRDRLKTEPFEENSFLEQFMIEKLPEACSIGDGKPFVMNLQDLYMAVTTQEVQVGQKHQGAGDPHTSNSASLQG
# method: tryptophan fluorescence quenching
assay_metric: pKd
Just so you know, pKd here is -log10 of the concentration in molar units; reply with that number alone.

Input line: Please give the documented pKd of 40-bp DNA (dsDNA) DNA 1: GGATACACAACAGACCGCAACACTCAGATTACTTTTCGCC DNA 2: GGCGAAAAGTAATCTGAGTGTTGCGGTCTGTTGTGTATCC
Output line: 5.54

Data credit: paper PMC3173232
